- assayed system: SARS-CoV-2 spike protein on pseudotyped lentivirus (Wuhan Reference Pseudovirus) (SARS-CoV-2, UniProt P0DTC2 14-1273)
- experiment description: cell-based or functional assay
Let's look at some binders and their measured Pseudovirus inhibition IC50 [Cont. 6].
All answers are understood in nM, so give the number only.

Field: example entries. Status: answers known.
# binder, Pseudovirus inhibition IC50 [Cont. 6] (nM)
records = [
    ("PP903 MBP-5HVZ-R1i-A11-H6 (VHH, Form: Dimer) VHH: QVQLVESGGGLVQPGGSLRLSCAASGSILQINAIHWFRQAPGKQREEVAAITSGGSTGYADSVKGRFTISRDNAKNTVYLQMNSLKPEDTAVYYCAATSTRGGLDSDYWGQGTQVTVSS", 50.4),
    ("PP1159 MPB-scTRP-PAPA-R5a-B7-H6 (VHH, Form: Trimer) VHH: QVQLVESGGGLVQPGGSLRLSCAASGAFFSYGAIHWFRQAPGKQREEVAAITSGGSTGYADSVKGRFTISRDNAKNTVYLQMNSLKPEDTAVYYCNAGVVWLPSNAAYNLWGQGTQVTVSS", 7.98),
    ("PP899 MBP-5HVZ-R5a-B5-H6 (VHH, Form: Dimer) VHH: QVQLVESGGGLVQPGGSLRLSCAASGDDFIENAISWYRQAPGKGREWVAAVTLGGHSNYADSVKGRFTISRDNAKNTVYLQMNSLKPEDTAVYYCNYPVGIPAVAIDGRRSYGYWGQGTQVTVSS", 5.25),
    ("PP900 MBP-5HVZ-R5a-F2-H6 (VHH, Form: Dimer) VHH: QVQLVESGGGLVQPGGSLRLSCAASGSISSIEAMSWFRQAPGKQREGVATMASGGDTSYADSVKGRFTISRDNAKNTVYLQMNSLKPEDTAVYYCAAQTYRPDTWGRYTFWGQGTQVTVSS", 59.3),
    ("PP1147 MBP-5HVZ-PAPA-R5a-B7-H6 (VHH, Form: Dimer) VHH: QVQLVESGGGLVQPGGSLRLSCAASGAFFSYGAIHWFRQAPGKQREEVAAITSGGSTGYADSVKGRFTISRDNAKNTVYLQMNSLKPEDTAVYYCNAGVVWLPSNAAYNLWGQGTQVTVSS", 0.44),
]

Next binder, please.
### Prompt Record request: Pseudovirus inhibition IC50 [Cont. 6] value, item PP1135 MBP-4B0F-PAPA-R5a-B7-H6 (VHH, Form: Heptamer) VHH: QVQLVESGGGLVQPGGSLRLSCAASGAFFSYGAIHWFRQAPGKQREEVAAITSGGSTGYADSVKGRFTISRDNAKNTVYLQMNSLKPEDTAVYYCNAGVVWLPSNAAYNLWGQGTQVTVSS
### Response 2.13
